Assign pIC50 to each entry below.
tested on: MCF-7 (human breast) cells; assay: Cytotoxicity, SRB method, MCF-7; format: cell-based
pIC50: −log10 of the molar value.

Here's what some known entries look like.
{"columns": ["compound", "pIC50"],
 "data": [
  ["CC(C)(O)[C@@H](O)[C@H]1C[C@@H]([C@@H]2CC[C@]3(C)C4=CC[C@H]5C(C)(C)C(=O)CC[C@]5(C)[C@H]4CC[C@@]23C)[C@H](O)O1 [Compound 11, melianodiol]", 4.28],
  ["COC(=O)CC1C2(C)CC34OC5(C)OC6(C7CC(=O)OC(c8ccoc8)C7(C)CCC6(O5)C13C)C(OC(=O)C(C)C)C4(O)C2OC(=O)C(C)C (stereo not drawn) [Compound 5, phragmalin, 3, 30-di-isobutyrates]", "< 4.00"]
]}

Moving on to the next compound.
Lookup: Looking for the measured pIC50 of CC(C)(O)C1OCC(C2CCC3(C)C4=CCC5C(C)(C)C(=O)CCC5(C)C4CCC23C)CC1O (stereo not drawn) [Compound 6, bourjotinolone A] , can you help?
Found: < 4.00

----------
test: Cytotoxicity, SRB method, Huh-7; assay type: cell-based, human; settings: human, Huh-7 (hepatoma) cells
measured-attribute: IC50 (µM)
Give bare numbers, in µM.

I'm hoping you can list IC50 for every compound here, please.
1. O=c1[nH]cc(F)c(=O)[nH]1 [5-Fluorouracil, 5-fluorouracil, reference compound]
2. CCC(=O)OC1C2(O)C(OC(=O)C=CC(C)C)C3(C)CC24OC2(C)OC15C1CC(=O)OC(C6=CC(O)OC6=O)C1(C)CCC5(O2)C4(C)C3CC(=O)OC (stereo not drawn)

Found:
1. 36.2
2. 72.1

----------
Assign IC50 to each entry below.
test: Cytotoxicity, SRB method, A549; assay type: cell-based, human; details: human, A-549 (lung) cells
Give bare numbers, in µM.

{"columns": ["compound", "IC50 (µM)"],
 "data": [
  ["CCC(=O)OC1C2(O)C(OC(=O)C=CC(C)C)C3(C)CC24OC2(C)OC15C1CC(=O)OC(C6=CC(O)OC6=O)C1(C)CCC5(O2)C4(C)C3CC(=O)OC (stereo not drawn)", 54.7]
]}

Lookup: Looking for the measured IC50 of O=c1[nH]cc(F)c(=O)[nH]1 [5-Fluorouracil, 5-fluorouracil, reference compound] , can you help?
Found: 36.2

----------
tested on: Huh-7 (hepatoma) cells; experiment: Cytotoxicity, SRB method, Huh-7; format: cell-based, human
Assign IC50 to each entry below.
Answers are plain numbers, in µM.

{"columns": ["molecule", "unit-annotation", "IC50"],
 "data": [
  ["CC(C)(O)C1OCC(C2CCC3(C)C4=CCC5C(C)(C)C(=O)CCC5(C)C4CCC23C)CC1O (stereo not drawn)", "µM", 29.6]
]}

Lookup: Looking for the measured IC50 of `CC(C)(O)[C@@H](O)[C@H]1C[C@@H]([C@@H]2CC[C@]3(C)C4=CC[C@H]5C(C)(C)C(=O)CC[C@]5(C)[C@H]4CC[C@@]23C)[C@H](O)O1` , can you help?
Found: 79.8

----------
assay: Cytotoxicity, SRB method, Hela; type: cell-based, human; details: human, Hela (cervical) cells
Assign pIC50 to each entry below.
Numbers only, as −log10 of the molar value.

{"columns": ["molecule", "pIC50"],
 "data": [
  ["CCC(=O)OC1C2(O)C(OC(=O)C=CC(C)C)C3(C)CC24OC2(C)OC15C1CC(=O)OC(C6=CC(O)OC6=O)C1(C)CCC5(O2)C4(C)C3CC(=O)OC (stereo not drawn) [Compound 2, Chukrasin F]", 4.48]
]}

Moving on to the next molecule.
Lookup: Looking for the measured pIC50 of O=c1[nH]cc(F)c(=O)[nH]1 [5-Fluorouracil, 5-fluorouracil, reference compound] , can you help?
Found: 5.64

// data source = paper PMC10392864
